Just for reference, patent US20080280810A1 is where these values come from.

Test: Co-application of multi-block peptide with semi-permanent dye (Arianor Ebony), color retention
Parameters: species or system human; key: ΔE of peptide sample minus peptide-free control; larger = better retention
Conditions: difference in Delta E between peptide sample and peptide free control after 3 embrocation cycles (about 12 manual shampoos); pH 8.5-9.0; >2 benefit, >4 substantial benefit
Experimental: A 0.5% aqueous solution of Arianor Ebony (Sensient Technologies Corp, Milwaukee, Wis.) containing 3% benzyl alcohol and 0.05% diazolidinyl urea (biocide) was prepared. […] Baseline […] readings were made on one inch long tresses (see below) using an X-RITE® SP78™ Sphere Spectrophotometer (X-Rite, Inc., Grandville, Mich.), by placing the hair tress into the photosensor and calculating L*, a* and b* parameters representing the photometer response. […]
parameter-measured: ΔE Retention Ebony Dye Regular Bleached Hair

LDTSFHQVPFHQ (Peptide having affinity for hair) [Peptide F4, reference compound]
0.95
P-TPPELLHGAPRS-KRKRK-D (PTPPELLHGAPRSKRKRKD; Peptide having affinity for hair) [HC 71]
1.9
IB5-KRKRKD (TPPELLHGDPRSKRKRKD; Peptide having affinity for hair)
−0.44

====

experiment: HPLC analysis of peptide uptake by hair; type: binding, human; conditions: 20 mM Tris pH 7.2, 0.15 M NaCl, room temperature, no dye; peptide 0.1 mg/mL (IB5A, A5) or 0.05 mg/mL (HC 71, HC 74)
parameter-measured: % Uptake time = 30 min

EQISGSLVAAPW (Hair-Binding Peptide) [Peptide A5, reference compound]
2%
P-TPPELLHGAPRS-KRKRK-D (PTPPELLHGAPRSKRKRKD; Peptide having affinity for hair) [HC 71]
69%
P-EQISGSLVAAPW-KRKRK-D (PEQISGSLVAAPWKRKRKD; Peptide having affinity for hair) [HC 74]
22%
TPPELLHGAPRS (Hair-binding peptide) [IB5A, reference compound]
8%

====

assay: Co-application of multi-block peptide with semi-permanent dye (Arianor Ebony), color retention; set-up: species or system human; key: ΔE of peptide sample minus peptide-free control; larger = better retention; conditions: difference in Delta E between peptide sample and peptide free control after 3 embrocation cycles (about 12 manual shampoos); pH 8.5-9.0; >2 benefit, >4 substantial benefit
parameter-measured: ΔE Retention Ebony dye with Natural White Hair

A5-EGEGER (EQISGSLVAAPWEGEGER; Peptide having affinity for hair) [Peptide A5-EGEGER]
5.7
F4-KRKRKD (LDTSFHQVPFHQKRKRKD; Peptide having affinity for hair) [Peptide F4-KRKRKD]
0.12
LDTSFHQVPFHQ (Peptide having affinity for hair) [Peptide F4, reference compound]
5.17
P-KRGRHKRPKRHK-GGG-IB5A-C (PKRGRHKRPKRHKGGGTPPELLHGAPRSC; Peptide having affinity for hair) [HC100]
−4.5

====

experiment: Phage ELISA, bovine enamel binding assay; conditions: over 10^10 pfu purified phage, anti-M13 HRP conjugate, TMB, no phage control 0.112
For each record, check the reported O.D. at 450 nm: if it is below 0.8 write label 1, else write label 0.

NTCQPTKNATPCSA [BoEn P6]
label 0
GYCLRGDEPAVCSG [BoEn P3]
label 1
THNMSHFPPSGHPKRTAT [BoEn P8]
label 0
EPPTRTRVNNHTVTVQAQQH [BoEn P2]
label 1

====

Catalogue of O.D. at 450 nm values
Experiment: Phage ELISA on pellicle coated HAP disks
Format: binding, human
Conditions: over 10^10 pfu purified phage, anti-M13 HRP conjugate, TMB, no phage control 0.218
Description: A total of 20 selected phage candidates (Example 29) were used in a phage ELISA experiment. Purified phage lysates were used for binding to pellicle HAP disks using an anti-M13 phage antibody conjugated to horseradish-peroxidase, followed by the addition of chromogenic agent TMB, obtained from Pierce Biotechnology (Rockford, Ill.). The plates were read at A450 nm. […]
parameter-measured: O.D. at 450 nm

AHPESLGIKYALDGNSDPHA [Pell 1]
0.739
DECMEPLNAAHCWR [Pell 3]
0.49
TPCAPASFNPHCSR [Pell 18]
0.416
NGPEVRQIPANFEKL [Pell 11]
0.607
WCTDFCTRSTPTSTSRSTTS [Pell 20]
0.715
DLCSSPSTWGSCIR [Pell 6]
0.735
NNTWPEGAGHTMPSTNIRQA [Pell 13]
0.598
NGPDMVQSVGKHKNS [Pell 10]
0.729
EPTHPTMRAQMHQSLRSSSP [Pell 8]
0.712
NPTDHIPANSTNSRVSKGNT [Pell 15]
0.567
DECMHGSDVEFCTS [Pell 4]
0.664
DPNESNYENATTVSQPTRHL [Pell 7]
0.831
TPCATYPHFSGCRA [Pell 19]
0.731
GNTDTTPPNAVMEPTVQHKW [Pell 9]
0.755

====

Experiment: Phage ELISA on pellicle coated HAP disks
Format: binding, human
Settings: over 10^10 pfu purified phage, anti-M13 HRP conjugate, TMB, no phage control 0.218
Source text: A total of 20 selected phage candidates (Example 29) were used in a phage ELISA experiment. Purified phage lysates were used for binding to pellicle HAP disks using an anti-M13 phage antibody conjugated to horseradish-peroxidase, followed by the addition of chromogenic agent TMB, obtained from Pierce Biotechnology (Rockford, Ill.). The plates were read at A450 nm. […]
Lab note: anything with O.D. at 450 nm below 0.7 is marked satisfied; values at 0.7 or higher are marked not satisfied.

NPTDSTHMMHARNHE [Pell 16]
satisfied
ASVSNYPPIHHLATSNTTVN [Pell 2]
not satisfied
DLCSMQMMNTGCHY [Pell 5]
not satisfied
NNTSADNPPETDSKHHLSMS [Pell 12]
satisfied

====

assay: Co-application of multi-block peptide with semi-permanent dye (Arianor Ebony), color retention; parameters: species or system human; key: ΔE of peptide sample minus peptide-free control; larger = better retention; conditions: difference in Delta E between peptide sample and peptide free control after 3 embrocation cycles (about 12 manual shampoos); pH 8.5-9.0; >2 benefit, >4 substantial benefit
parameter-measured: ΔE Retention Ebony Dye Regular Bleached Hair

A5-EGEGER (EQISGSLVAAPWEGEGER; Peptide having affinity for hair) [Peptide A5-EGEGER]
−1.0
P-EQISGSLVAAPW-KRKRK-D (PEQISGSLVAAPWKRKRKD; Peptide having affinity for hair) [HC 74]
0.1
F4-KRKRKD (LDTSFHQVPFHQKRKRKD; Peptide having affinity for hair) [Peptide F4-KRKRKD]
−2.66
KF11-GGG-GHGHQKQHGLGHGHKHGHGHGHGHGK (PNTSQLSTGGGGHGHQKQHGLGHGHKHGHGHGHGHGK; Peptide having affinity for hair) [HC 81]
−0.1
P-KRGRHKRPKRHK-GGG-IB5A-C (PKRGRHKRPKRHKGGGTPPELLHGAPRSC; Peptide having affinity for hair) [HC100]
−0.27
A5-KRKRKD (EQISGSLVAAPWKRKRKD; Peptide having affinity for hair) [Peptide A5-KRKRKD]
1.09
KF11-EGEGED (NTSQLSTEGEGED; Peptide having affinity for hair)
−4.05

====

assay: Phage ELISA, bovine polished enamel binding assay; conditions: over 10^10 pfu purified phage, anti-M13 HRP conjugate, TMB, no phage control 0.193
Rule: O.D. at 450 nm below 0.9 gives y, anything at or above gives n.

NTCATSPNSYTCSN [BoEn 6]
n
YSETPNDQKPNPHYKVSGTK [BoEn 10]
n
AANPHTEWDRDAFQLAMPPK [BoEn 1]
n
VGTMKQHPTTTQPPRVSATN [BoEn 9]
y
LNDQRKPGPPTMPTHSPAVG [BoEn 5]
n
